Each recorded value in this set is attributed to patent US10975060B2.

Form field: r1 human plasma (one value per entry).
# assay-method-text: Relaxivity measurements at 1.4 T (MiniSpec mq60, 60 MHz, 37 °C) in water and human plasma
# Type: physicochemical
# condition-info: 1.41 T, human plasma, normalized to Gd

[
  {
    "compound": "CC(C)N(CC(=O)NCC(CNC(=O)CN(C(=O)CN1CCN(CC(=O)[O-])CCN(CC(=O)[O-])CCN(CC(=O)[O-])CC1)C(C)C)(CNC(=O)CN(C(=O)CN1CCN(CC(=O)[O-])CCN(CC(=O)[O-])CCN(CC(=O)[O-])CC1)C(C)C)CNC(=O)CN(C(=O)CN1CCN(CC(=O)[O-])CCN(CC(=O)[O-])CCN(CC(=O)[O-])CC1)C(C)C)C(=O)CN1CCN(CC(=O)[O-])CCN(CC(=O)[O-])CCN(CC(=O)[O-])CC1.[Gd+3].[Gd+3].[Gd+3].[Gd+3] [Example 5]",
    "r1 human plasma [L/mmol/s]": 13.1
  },
  {
    "compound": "CCN(CC(=O)NCC(CNC(=O)CN(CC)C(=O)CN1CCN(CC(=O)[O-])CCN(CC(=O)[O-])CCN(CC(=O)[O-])CC1)(CNC(=O)CN(CC)C(=O)CN1CCN(CC(=O)[O-])CCN(CC(=O)[O-])CCN(CC(=O)[O-])CC1)CNC(=O)CN(CC)C(=O)CN1CCN(CC(=O)[O-])CCN(CC(=O)[O-])CCN(CC(=O)[O-])CC1)C(=O)CN1CCN(CC(=O)[O-])CCN(CC(=O)[O-])CCN(CC(=O)[O-])CC1.[Gd+3].[Gd+3].[Gd+3].[Gd+3] [Example 2]",
    "r1 human plasma [L/mmol/s]": 11.6
  },
  {
    "compound": "O=C([O-])CN1CCN(CC(=O)[O-])CCN(CC(=O)N(CC(=O)NCC(CNC(=O)CN(C(=O)CN2CCN(CC(=O)[O-])CCN(CC(=O)[O-])CCN(CC(=O)[O-])CC2)C2CC2)(CNC(=O)CN(C(=O)CN2CCN(CC(=O)[O-])CCN(CC(=O)[O-])CCN(CC(=O)[O-])CC2)C2CC2)CNC(=O)CN(C(=O)CN2CCN(CC(=O)[O-])CCN(CC(=O)[O-])CCN(CC(=O)[O-])CC2)C2CC2)C2CC2)CCN(CC(=O)[O-])CC1.[Gd+3].[Gd+3].[Gd+3].[Gd+3] [Example 7]",
    "r1 human plasma [L/mmol/s]": 12.1
  }
]
